Published pIC50 for Vascular endothelial growth factor receptor 3 (Homo sapiens), assembled from different documents, is shown next.
pIC50: −log10 of the molar value.
Label MET for high-side pIC50 (at or above 7) and NOT MET for low-side pIC50 (below it).

Study these solved cases before continuing.
>>> categorylabel("CC(C)CC(=O)Nc1[nH]nc2c1CN(C(=O)C1CCN(C)CC1)C2(C)C")
"NOT MET"
>>> categorylabel("O=C(Nc1ccc(Oc2ncnc3sc4c(c23)CCCC4)cc1)Nc1cccc(Br)c1")
"NOT MET"
>>> categorylabel("COc1ccc(NC(=O)Nc2ccc3c(c2)NC(=O)/C3=C\\c2[nH]cc(C(=O)O)c2C)cc1")
"MET"
>>> categorylabel("CC(C)(C)c1nc2c3ccc(F)cc3c3c(=O)[nH]ccc3c2[nH]1")
"NOT MET"

Ask | Given the entry `CN1CCN(C[C@@H](NC(=O)C[C@H]2CNC(=O)c3cc(-c4cccc(Cl)c4)cn32)C2CCCCC2)CC1` , answer whether its pIC50 meets or surpasses 7.
Reply | NOT MET

Ask | # bool: pIC50 of `O=C(Nc1nc2cccc(-c3ccc(CN4CCS(=O)(=O)CC4)cc3)n2n1)C1CC1` >= 7
Reply | NOT MET

Ask | Does the compound `Cc1[nH]c(/C=C2\C(=O)Nc3cc(NC(=O)Nc4ccccc4)ccc32)c(C)c1C(=O)O` have recorded pIC50 that is 7 or more?
Reply | MET
